The molecules listed here are annotated with their Inhibition.
system: Plasmodium falciparum; experiment: GSK_TCMDC: Inhibition of Plasmodium falciparum 3D7 in whole red blood cells, using parasite LDH activity as an index of growth. Test compounds present at 2uM; type: functional
Numbers only here, please. The scale is %.

[[record]]
molecule = "CCCC(C)Nc1nc(C)cc(N[C@@H](CC(C)C)C(=O)Nc2ccc(OC)cc2)n1.O=C(O)C(F)(F)F (some centres undefined)"
numericreadout = 98


Please give the documented Inhibition of `CCCc1cc(Cc2cnc(N)nc2N)cc2c1OC(C)(C)C2.Cl` 89

Please give the documented Inhibition of `COc1cc(OC)cc(C(=O)Nc2nc(-c3ccccn3)cs2)c1` 97

Please give the documented Inhibition of `CC(=O)c1cccc(NC(=O)c2ccc(Cl)c(S(=O)(=O)N3CCc4ccccc43)c2)c1` 93

Please give the documented Inhibition of CCCCCC(C)C(C)c1cc(O)c2c(c1)OC(C)(C)CC2c1cc[n+]([O-])cc1 (centres undefined) 96

Please give the documented Inhibition of CCCCCN(C(=O)Nc1cc(C(F)(F)F)cc(C(F)(F)F)c1)C(C)c1nc2ccccc2c(=O)n1CC (centres undefined) 100

Please give the documented Inhibition of `O=C(Nc1cccc(CN2CCCN(Cc3cccc(F)c3)CC2)c1)c1ccc(Cl)c(Cl)c1.O=C(O)C(F)(F)F` 85

Please give the documented Inhibition of O=C(O)C(F)(F)F.O=C1COC(c2ccccc2)(c2ccccc2)CN1CC1CCN(Cc2ccc(O)cc2Cl)C1 (centres undefined) 85

Please give the documented Inhibition of `O=C(Nc1ccc2c(c1)CCC2)c1ccc(N2CCN(c3ccncc3)CC2)cc1.O=C(O)C(F)(F)F` 100
